System: 885724-159-R-J1-PDC complex spheroid viability
Test: Anticancer human tumor 885724-159-R-J1-PDC patient-derived pancreatic adenocarcinoma cell line growth inhibition [GQUAD]
Conditions: second compound 0.0316 µM; first compound 1 µM; stronger effect = lower value
Text: DNA G-quadruplex Stabilizer Agents in Combinations in Complex Spheroids A high-throughput screen of multi-cell type tumor spheroids was designed to identify active combinations of DNA G-quadruplex stabilizer agents and targeted small molecules. […] Compounds. […] If the clinical Cmax for an agent had not been determined, the highest concentration tested was 10 microM. […]
Consider the following compounds; for each one, report its viability, T/C.
Answers are plain numbers, in %.

COMPOUND: C#Cc1c(F)ccc2cc(O)cc(-c3ncc4c(N5CC6CCC(C5)N6)nc(OCC56CCCN5CC(F)C6)nc4c3F)c12 (stereo not given) + Cc1cnc(CNC(=O)c2c(=O)c3ccc(N4CCCN(C)CC4)nc3n3c2sc2ccccc23)cn1
TEST_TARGET: 885724-159-R-J1-PDC complex spheroid viability
viability, T/C (%): 103

COMPOUND: C=CCn1c(=O)c2cnc(Nc3ccc(N4CCN(C)CC4)cc3)nc2n1-c1cccc(C(C)(C)O)n1 + Cc1cnc(CNC(=O)c2c(=O)c3ccc(N4CCCN(C)CC4)nc3n3c2sc2ccccc23)cn1
TEST_TARGET: 885724-159-R-J1-PDC complex spheroid viability
viability, T/C (%): 97.1

Give measured viability, T/C for every item shown.
1. O=c1[nH]cc(F)c(=O)[nH]1 + Cc1cnc(CNC(=O)c2c(=O)c3ccc(N4CCCN(C)CC4)nc3n3c2sc2ccccc23)cn1
2. CC1COCCN1c1cc(C2(O)CC3CCC(C2)O3)c2cnn(-c3ccn[nH]3)c2n1 (stereo not given) + CN(C)c1ccc(Nc2c3ccc(NC(=O)CCN4CCCC4)cc3nc3cc(NC(=O)CCN4CCCC4)ccc23)cc1
3. COc1ncnc(C2CC2)c1-c1ncc2cnn(Cc3ccc(-c4nc(C(F)(F)F)cn4C(C)C)cc3)c2n1 + Cc1[nH]c2ccc(F)cc2c1-c1nc2c3cccnc3c3ncccc3c2[nH]1

Result:
[118, 53.1, 81.8]

###

System: 885724-159-R-J1-PDC complex spheroid viability
Assay: Anticancer human tumor 885724-159-R-J1-PDC cell line growth inhibition [GQUAD]; active = viability on the fitted dose curve at most 10% of control; inactive = the rest;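 note: spheroids exposed to agents for seven days before readout; percent of vehicle control viability where 100% = DMSO wells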
Conditions: second compound 3.16 µM; first compound 3.16 µM
Respond only with the outcome that fits, drawn from label 1 = active, label 0 = inactive

Worked examples, 4 molecules total:
MOLECULE: CC(=O)O[C@H]1C(=O)[C@@]2(C)[C@H]([C@H](OC(=O)c3ccccc3)[C@]3(O)C[C@H](OC(=O)[C@H](O)[C@@H](NC(=O)c4ccccc4)c4ccccc4)C(C)=C1C3(C)C)[C@]1(OC(C)=O)CO[C@@H]1C[C@@H]2O + CN(C)c1ccc(Nc2c3ccc(NC(=O)CCN4CCCC4)cc3nc3cc(NC(=O)CCN4CCCC4)ccc23)cc1
TEST_TARGET: 885724-159-R-J1-PDC complex spheroid viability
ASSIGNED_LABEL: label 0
--
MOLECULE: COc1cc(C2c3cc4c(cc3C(OC3OC5COC(C)OC5C(O)C3O)C3COC(=O)C23)OCO4)cc(OC)c1O (centres undefined) + Cc1cnc(CNC(=O)c2c(=O)c3ccc(N4CCCN(C)CC4)nc3n3c2sc2ccccc23)cn1
TEST_TARGET: 885724-159-R-J1-PDC complex spheroid viability
ASSIGNED_LABEL: label 0
--
MOLECULE: COc1ccc([C@@H](O)c2cc(-c3ncnc4cc(N5CCOCC5)ccc34)c(F)cc2Cl)nn1 + CN(C)c1ccc(Nc2c3ccc(NC(=O)CCN4CCCC4)cc3nc3cc(NC(=O)CCN4CCCC4)ccc23)cc1
TEST_TARGET: 885724-159-R-J1-PDC complex spheroid viability
ASSIGNED_LABEL: label 0
--
MOLECULE: COc1cccc2c1C(=O)c1c(O)c3c(c(O)c1C2=O)CC(O)(C(=O)CO)CC3OC1CC(N)C(O)C(C)O1 (centres undefined) + Cc1cnc(CNC(=O)c2c(=O)c3ccc(N4CCCN(C)CC4)nc3n3c2sc2ccccc23)cn1
TEST_TARGET: 885724-159-R-J1-PDC complex spheroid viability
ASSIGNED_LABEL: label 0

Problem: Hello, I am checking results. What call was entered for CC(C)(O)C1CCC(Nc2ccc3ncc(-c4cccc(C(F)(F)F)c4)n3n2)CC1 (centres undefined) + CN(C)c1ccc(Nc2c3ccc(NC(=O)CCN4CCCC4)cc3nc3cc(NC(=O)CCN4CCCC4)ccc23)cc1 ?
Result: label 0

Problem: Hello, I am checking results. What call was entered for CC1COCCN1c1cc(-c2ccnn2C)c2ccnc(-c3ccn[nH]3)c2n1 (centres undefined) + CN(C)c1ccc(Nc2c3ccc(NC(=O)CCN4CCCC4)cc3nc3cc(NC(=O)CCN4CCCC4)ccc23)cc1 ?
Result: label 0

Problem: Hello, I am checking results. What call was entered for CC1COCCN1c1cc(-c2ccnn2C)c2ccnc(-c3ccn[nH]3)c2n1 (centres undefined) + Cc1cnc(CNC(=O)c2c(=O)c3ccc(N4CCCN(C)CC4)nc3n3c2sc2ccccc23)cn1 ?
Result: label 0

Problem: Hello, I am checking results. What call was entered for CC(=O)O[C@H]1C(=O)[C@@]2(C)[C@H]([C@H](OC(=O)c3ccccc3)[C@]3(O)C[C@H](OC(=O)[C@H](O)[C@@H](NC(=O)c4ccccc4)c4ccccc4)C(C)=C1C3(C)C)[C@]1(OC(C)=O)CO[C@@H]1C[C@@H]2O + Cc1[nH]c2ccc(F)cc2c1-c1nc2c3cccnc3c3ncccc3c2[nH]1 ?
Result: label 1

Problem: Hello, I am checking results. What call was entered for O=c1[nH]cc(F)c(=O)[nH]1 + Cc1cnc(CNC(=O)c2c(=O)c3ccc(N4CCCN(C)CC4)nc3n3c2sc2ccccc23)cn1 ?
Result: label 0
